test: Optical properties: UV-visible spectra, fluorescence excitation and emission; format: physicochemical; details: (1/λex − 1 λem)
Measured endpoint: Stokes shift (cm⁻¹)
Numbers only, in cm⁻¹.

Reference set, count: 5
- Chemical structure: "Nc1nc2c(nc(C#Cc3cccc4ccccc34)n2[C@@H]2O[C@H](CO)[C@@H](O)[C@H]2O)c(=O)[nH]1"
  Readout units: "cm⁻¹"
  Stokes shift: 4604
- Chemical structure: "CSc1ccc(C#Cc2nc3c(=O)[nH]c(N)nc3n2[C@@H]2O[C@H](CO)[C@@H](O)[C@H]2O)cc1"
  Readout units: "cm⁻¹"
  Stokes shift: 3264
- Chemical structure: "Nc1ncnc2c1nc(C#Cc1cccc3ccccc13)n2[C@@H]1O[C@H](CO)[C@@H](O)[C@H]1O"
  Readout units: "cm⁻¹"
  Stokes shift: 3394
- Chemical structure: "Nc1ncnc2c1nc(C#Cc1ccccc1)n2[C@@H]1O[C@H](CO)[C@@H](O)[C@H]1O"
  Readout units: "cm⁻¹"
  Stokes shift: 3383
- Chemical structure: "Nc1ncnc2c1nc(C#Cc1ccc(C(F)(F)F)cc1)n2[C@@H]1O[C@H](CO)[C@@H](O)[C@H]1O"
  Readout units: "cm⁻¹"
  Stokes shift: 4897

Give me Stokes shift for each of these molecules, listed below.
1. Cc1ccc(C#Cc2nc3c(=O)[nH]c(N)nc3n2[C@@H]2O[C@H](CO)[C@@H](O)[C@H]2O)cc1
2. COc1ccc(C#Cc2nc3c(N)ncnc3n2[C@@H]2O[C@H](CO)[C@@H](O)[C@H]2O)cc1
3. COc1ccc(C#Cc2nc3c(=O)[nH]c(N)nc3n2[C@@H]2O[C@H](CO)[C@@H](O)[C@H]2O)cc1
4. CSc1ccc(C#Cc2nc3c(N)ncnc3n2[C@@H]2O[C@H](CO)[C@@H](O)[C@H]2O)cc1

1: 3452; 2: 1933; 3: 2749; 4: 1921

Give me Stokes shift for each of these molecules, listed below.
1. Nc1nc2c(nc(C#Cc3ccccc3)n2[C@@H]2O[C@H](CO)[C@@H](O)[C@H]2O)c(=O)[nH]1
2. CCN(CC)c1ccc(C#Cc2nc3c(N)ncnc3n2[C@@H]2O[C@H](CO)[C@@H](O)[C@H]2O)cc1
3. Cc1ccc(C#Cc2nc3c(N)ncnc3n2[C@@H]2O[C@H](CO)[C@@H](O)[C@H]2O)cc1

1: 4196; 2: 4747; 3: 3126

----------
Measured endpoint: melting point

Reference set, count: 5
- Compound: "Nc1nc2c(nc(C#Cc3ccccc3)n2[C@@H]2O[C@H](CO)[C@@H](O)[C@H]2O)c(=O)[nH]1 [Compound 5a, 8-(Phenylethynyl)guanosine]"
  Measured endpoint: "melting point"
  Value: "234 to 236 °C (dec.)"
- Compound: "Nc1ncnc2c1nc(C#Cc1ccccc1)n2[C@@H]1O[C@H](CO)[C@@H](O)[C@H]1O [Compound 6a, 8-(Phenylethynyl)adenosine]"
  Measured endpoint: "melting point"
  Value: "168 to 170 °C (dec.)"
- Compound: "Nc1nc2c(nc(C#Cc3ccc(C(F)(F)F)cc3)n2[C@@H]2O[C@H](CO)[C@@H](O)[C@H]2O)c(=O)[nH]1 [Compound 5g]"
  Measured endpoint: "melting point"
  Value: "> 240 °C"
- Compound: "COc1ccc(C#Cc2nc3c(=O)[nH]c(N)nc3n2[C@@H]2O[C@H](CO)[C@@H](O)[C@H]2O)cc1 [Compound 5c, 8-(4-Methoxyphenylethynyl)guanosine]"
  Measured endpoint: "melting point"
  Value: "220 to 224 °C (dec.)"
- Compound: "COc1ccc(C#Cc2nc3c(N)ncnc3n2[C@@H]2O[C@H](CO)[C@@H](O)[C@H]2O)cc1 [Compound 6c, 8-(4-methoxyphenylethynyl)-adenosine]"
  Measured endpoint: "melting point"
  Value: "198 to 202 °C (dec.)"

Now turn to the next compound.
The compound listed as CSc1ccc(C#Cc2nc3c(=O)[nH]c(N)nc3n2[C@@H]2O[C@H](CO)[C@@H](O)[C@H]2O)cc1 [Compound 5d] shows melting point equal to 214 to 216 °C (dec.)
